# System: (+)-germacrene A hydroxylase
# test: Effect of the used solvent for (+)-γ-gurjunene on enzyme activity
# Assay type: biochemical, Cichorium intybus L.
# particulars: peak height of γ-gurjunene alcohol relative to the internal standard (5 nmol cis-nerolidol); 5 μL of 10 mM γ-gurjunene in the solvent
// reported Enzyme activity ± SD for each item listed
In your answer, state the number alone without any accompanying words.

Check out these entries, answers already filled in.
>  <compound>
C[S+](C)[O-] [DMSO]

>  <reported property>
Enzyme activity ± SD

>  <value>
1.80

$$$$
>  <compound>
CCCCC [pentane]

>  <reported property>
Enzyme activity ± SD

>  <value>
0.47

$$$$
>  <compound>
CCO [ethanol]

>  <reported property>
Enzyme activity ± SD

>  <value>
1.87

$$$$

Given CC(C)O [iso-propanol] , respond with its Enzyme activity ± SD.
1.76

Values from patent US7214507B2
